meta.source: ChEMBL document CHEMBL1687756

Assay: Cmax in female dog at 400 mg administered intramuscularly after 85 days
Conditions: in vivo, im

smiles.code | Cmax, ng/mL
Cc1cc(/C=C/C#N)cc(C)c1Nc1ccnc(Nc2ccc(C#N)cc2)n1 | 5260

----------
Assay: Ratio of drug level in spleen to plasma in female Beagle dog at 200 mg/kg administered intramuscularly after 3 months
Format: ADME, organism-based, Canis lupus familiaris
Parameters: dose 200 mg/kg, route intramuscular
Details: im

smiles.code | Kp at 2191.5 h
Cc1cc(/C=C/C#N)cc(C)c1Nc1ccnc(Nc2ccc(C#N)cc2)n1 | 2.2

----------
Assay: Ratio of drug level in lymph node mandibular to plasma in Beagle dog at 5 mg/kg, sc after 3 months
Type: ADME, organism-based, Canis lupus familiaris
Set-up: dose 5 mg/kg, route subcutaneous
measured.property: Kp at 2191.5 h

smiles.code | result.value
Cc1cc(/C=C/C#N)cc(C)c1Nc1ccnc(Nc2ccc(C#N)cc2)n1 | 4
